Reported values of human LM [% Qh] for individual entries
- experimental-protocol: Assay B: Microsomal clearance
- Format: in vitro ADME, human
- condition: pooled liver microsomes 1 mg/ml, test compound 1 μM, 37° C., NADPH; clearance as % of hepatic blood flow

Answered examples (2):
Cc1ccc([C@@H](O)Cn2nnc(Cn3cnc4c(c3=O)N(C)C(=O)CO4)n2)cc1 :: <23 % Qh
CN1C(=O)COc2ncn(Cc3nnn(C[C@H](O)c4ccc(C#N)s4)n3)c(=O)c21 :: <23 % Qh

Tell me its human LM [% Qh] given CN1C(=O)COc2ncn(Cc3nnn(C[C@H](O)c4cc5cc(Cl)c(F)cc5o4)n3)c(=O)c21 as the entry. 34 % Qh

Query human LM [% Qh] for COc1ccc([C@@H](O)Cn2nnc(Cn3cnc4c(c3=O)N(C)C(=O)CO4)n2)cc1 <23 % Qh

Write down human LM [% Qh] measured for item CN1C(=O)C(F)(F)Oc2ncn(Cc3nnn(C[C@H](O)c4ccc(Cl)cc4)n3)c(=O)c21 35 % Qh

Give the reported human LM [% Qh] for this compound. CN1C(=O)CSc2ncn(Cc3nnn(C[C@H](O)c4ccc(Cl)cc4)n3)c(=O)c21 <23 % Qh

Return reported human LM [% Qh]. Input compound: CN1C(=O)COc2ncn(Cc3nnn(C[C@H](O)c4cc5cccc(F)c5o4)n3)c(=O)c21 <23 % Qh

Retrieve human LM [% Qh] measured for CN1C(=O)COc2ncn(Cc3nnn(C[C@H](O)c4ccc5c(c4)OCO5)n3)c(=O)c21 and print it. <23 % Qh
